tested on: Plasmodium berghei; test: Screen against P. berghei liver stage (PbLuc), transformed with Luciferase, at 10uM; format: functional, HepG2; details: tested at 10 uM
About 8,600 (12%) of roughly 69,000 compounds showed an effect of 50% or more. The sample as a whole holds a higher share of strong results than the screen did.
Quick reference for INHIBITION among some compounds

Sample records with INHIBITION:
Given the entry CN(CC1Cc2ccccc2CN1C)C(=O)CSc1nccn1C (stereo not drawn) , report its measured INHIBITION.
40.9%

Given the entry O=C(Cc1ccccc1F)N1C[C@@H]2COC[C@]2(COc2cccnc2)C1 , report its measured INHIBITION.
39.2%

Next:
Given the entry O=C(COC1CCCC1)N1C[C@@H]2COC[C@]2(COc2cccnc2)C1 , report its measured INHIBITION.
40.3%
